- SYSTEM_UNDER_TEST: recombinant human GREM1 (hGREM1-His; C-terminal 10His tagged, R&D, #5190-GR) (human) (UniProt O60565)
- Sequence (O60565 other isoform, or with tags, fused parts or gaps limits assumed, form in doubt): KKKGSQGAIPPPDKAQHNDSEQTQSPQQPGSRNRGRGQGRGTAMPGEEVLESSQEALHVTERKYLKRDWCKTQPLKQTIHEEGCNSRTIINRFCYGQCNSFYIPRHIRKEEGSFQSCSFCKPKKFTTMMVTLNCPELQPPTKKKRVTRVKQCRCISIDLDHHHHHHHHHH
- PROCEDURE_TEXT: BLI Octet, captured mAb, 100 nM GREM1
VALUE_TYPE: Binding Signal with 30 sec Association (nm)
Output spec: scalar in nm, unitless text.

Input line: Any idea what Binding Signal with 30 sec Association (nm) was measured for H4H2926N (antibody, human IgG4, V domains shown) VH: EVQLVESGGGLVQTGRSLRLSCAASGFTFDDYAMNWVRQAPGKGLEWVSGISWNSGNIGYADSVKGRFTISRDNAKNSLYLQMNSLRAEDTALYYCVKYIGQQLVQDYFDYWGQGTLVTVSS VL: DIQMTQSPSSLSASVGDRVTITCQASQDITNYLNWYQQRPGKAPKLLIYDAFNLERGVPSRFSGSGYGTYFTFTISSLQPEDIAIYYCQQYDNLPLTFGGGTKVEIE ?
Output line: 0.23

Input line: Any idea what Binding Signal with 30 sec Association (nm) was measured for H4H6252P (antibody, human IgG4, V domains shown) VH: QVQLVESGGGVVQPGRSLRLSCAASGFTFSNYGMHWVRQAPGRGLEWVAVIWFDGSNKYYADSVKGRFTISRDNSKNTLYLQMNSLRSEDTAVYYCTRDDYGDYDYPFDYWGQGTLVTVSS VL: DIQMTQSPSSLSASVGDRVTITCRASQGIRNDLGWYQQKPGKAPKRLIYAASSLQSGVPSRFSGSGSGTEFTLTISSLQPEDFATYYCLQYNTYPPFTFGPGTKVDIK ?
Output line: 0.23
